- Species on record: Rattus norvegicus
- EXPERIMENTAL_PROTOCOL: Compound was tested for its relative Cholesterol Synthesis Inhibition as compared to compactin in rats.
- Assay type: functional
Recorded Relative inhibition, one value per entry.
Please reply with the number alone, leaving off any unit.

Look over these answered cases.
>  <COMPOUND>
CC(C)c1nc2ccc(Cl)cc2c(-c2ccc(F)cc2)c1/C=C/[C@@H]1C[C@@H](O)CC(=O)O1

>  <RESULT_NUMBER>
100

$$$$
>  <COMPOUND>
COc1ccc2nc(C(C)C)c(/C=C/[C@@H]3C[C@@H](O)CC(=O)O3)c(-c3ccc(F)cc3)c2c1

>  <RESULT_NUMBER>
100

$$$$

Entry CC(C)c1nc2ccccc2c(-c2ccc(F)cc2)c1/C=C/[C@@H]1C[C@@H](O)CC(=O)O1 : reported Relative inhibition = ?
75.8

What about CC[C@H](C)C(=O)O[C@H]1C[C@@H](C)C=C2C=C[C@H](C)[C@H](CC[C@@H]3C[C@@H](O)CC(=O)O3)[C@H]21 [LOVASTATIN] ?
118

Same again, this time with CC(C)c1nc2ccc(F)cc2c(-c2ccc(F)cc2)c1/C=C/[C@@H]1C[C@@H](O)CC(=O)O1 (stereo in doubt; 8d)
77.6

Then CN(C)c1nc2ccccc2c(-c2ccc(F)cc2)c1/C=C/[C@@H]1C[C@@H](O)CC(=O)O1 ?
13.2

Repeat for the following compound: Cc1nc2ccc(Cl)cc2c(-c2ccc(F)cc2)c1/C=C/[C@@H]1C[C@@H](O)CC(=O)O1
6.3

Origin of the recorded values: ChEMBL document CHEMBL1125871
